- studySystem: MMP-14 (Homo sapiens, UniProt P50281)
- Construct: The catalytic domain enzyme was expressed in E. coli inclusion bodies, solubilized in urea; made in house
- testSummary: In vitro MMP inhibition, Ki determination (fluorogenic substrate II)
- Format: biochemical
- conditionContext: value outside parentheses; read-out: MMP-14 Ki
assayReadout: Ki (µM)

CCCCOc1ccc(N2CCN(S(=O)(=O)C3(C(=O)NO)CCN(C(=O)CC)CC3)CC2)cc1 [Example 274] = 3.03

a: CCCCOc1ccc(C2CCN(S(=O)(=O)C3(C(=O)NO)CCOCC3)CC2)nc1 [Example 410]
b: CCCCOc1ccc(N2CCN(S(=O)(=O)C3(C(=O)NO)CCN(C(=O)CN)CC3)CC2)cc1 [Example 292]
c: COCCN1CCC(C(=O)NO)(S(=O)(=O)N2CCC(c3ccc(CCC(F)(F)C(F)(F)F)cc3)CC2)CC1 [Example 312]
d: O=C(NO)C1(S(=O)(=O)N2CCC(COCc3ccc(SC(F)(F)F)cc3)CC2)CCOCC1 [Example 405]
[ask] Order by Ki, ascending. # respond with the labels, arranged in the requested order
[reply] d, a, c, b
(d: 0.0957 µM, a: 1.36 µM, c: 2.04 µM, b: 6.54 µM)

----------
- studySystem: MMP-2 (Homo sapiens)
- Construct: made in house; host or cells: MMP-2-transfected p2AHT2 cells
- Sequence (P08253 110-660): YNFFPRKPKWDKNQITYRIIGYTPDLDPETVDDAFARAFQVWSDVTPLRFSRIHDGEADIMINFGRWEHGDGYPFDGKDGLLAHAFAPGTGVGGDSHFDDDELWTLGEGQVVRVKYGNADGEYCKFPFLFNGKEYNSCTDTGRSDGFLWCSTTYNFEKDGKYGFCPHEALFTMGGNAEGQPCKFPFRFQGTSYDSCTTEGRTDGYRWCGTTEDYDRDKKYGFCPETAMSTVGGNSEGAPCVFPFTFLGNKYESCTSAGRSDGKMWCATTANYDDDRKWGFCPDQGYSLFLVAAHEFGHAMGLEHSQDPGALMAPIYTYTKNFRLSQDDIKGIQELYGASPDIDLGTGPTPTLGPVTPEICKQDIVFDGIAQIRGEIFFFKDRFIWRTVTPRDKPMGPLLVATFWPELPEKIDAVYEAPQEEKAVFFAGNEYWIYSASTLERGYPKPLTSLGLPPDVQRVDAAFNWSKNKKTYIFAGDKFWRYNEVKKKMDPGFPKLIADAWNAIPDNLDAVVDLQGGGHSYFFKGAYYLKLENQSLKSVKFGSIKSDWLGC
- testSummary: In vitro MMP inhibition, IC50 determination (fluorogenic substrate I)
- Type: biochemical
- conditionContext: values in parenthesis; 4 μM substrate I; room temperature
Structures can show the parent of a compound that is named as a salt.
assayReadout: IC50 (pM)
Value expressed in pM; do not type the unit.

IC50 reading for CCCCCc1ccc(C2CCN(S(=O)(=O)C3(C(=O)NO)CCN(CCOC)CC3)CC2)cc1 [Example 15, Hydrochloride] : 100

----------
- studySystem: MMP-9 (Homo sapiens)
- Construct: made in house; host or cells: MMP-9-transfected HT1080 cells (spent media)
- Sequence (P14780 107-707 limits assumed): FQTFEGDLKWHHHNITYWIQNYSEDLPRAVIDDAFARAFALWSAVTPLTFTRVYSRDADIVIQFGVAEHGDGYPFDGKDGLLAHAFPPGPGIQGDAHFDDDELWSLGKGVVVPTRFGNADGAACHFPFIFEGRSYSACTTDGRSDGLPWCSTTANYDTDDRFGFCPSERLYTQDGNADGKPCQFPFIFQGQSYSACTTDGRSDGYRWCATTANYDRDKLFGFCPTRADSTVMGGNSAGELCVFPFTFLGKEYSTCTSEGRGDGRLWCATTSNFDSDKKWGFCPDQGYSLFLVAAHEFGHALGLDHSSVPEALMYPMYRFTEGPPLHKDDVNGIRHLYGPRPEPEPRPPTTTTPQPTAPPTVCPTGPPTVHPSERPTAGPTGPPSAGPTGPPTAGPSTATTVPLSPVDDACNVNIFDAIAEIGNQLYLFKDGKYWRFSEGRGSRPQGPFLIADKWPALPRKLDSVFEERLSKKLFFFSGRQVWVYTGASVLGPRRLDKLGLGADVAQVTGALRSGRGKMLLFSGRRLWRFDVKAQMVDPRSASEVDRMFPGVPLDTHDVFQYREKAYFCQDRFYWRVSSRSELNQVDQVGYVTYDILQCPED
- testSummary: In vitro MMP inhibition, Ki determination (fluorogenic substrate II)
- Assay type: biochemical
- conditionContext: value not in parenthesis
pKi: −log10 of the molar value.
assayReadout: pKi

CCCCCc1cnc(N2CCN(S(=O)(=O)C3(C(=O)NO)CCOCC3)CC2)s1 [Example 56] = 8.46
CCCc1nnc(N2CCN(S(=O)(=O)C3(C(=O)NO)CCOCC3)CC2)s1 [Example 216] = 6.22
O=C(NO)C1(S(=O)(=O)N2CCN(c3ccc(OCCCC(F)(F)F)cn3)CC2)CCOCC1 [Example 83] = 8.38

1: CCCCc1ccc(N2CCN(S(=O)(=O)C3(C(=O)NO)CCN(c4cccnc4)CC3)CC2)nc1 [Example 96]
2: CCCCOc1ccc(N2CCN(S(=O)(=O)C3(C(=O)NO)CCN(CCN4CCOCC4)CC3)CC2)cc1 [Example 233]
3: CCCCCc1ccc(N2CCN(S(=O)(=O)C3(C(=O)NO)CCN(c4ccc(C)cc4)CC3)CC2)cc1 [Example 147]
4: CCCCOc1ccc(N2CCN(S(=O)(=O)C3(C(=O)NO)CCN(C(=O)OCC(C)(C)C)CC3)CC2)cc1 [Example 97]
[ask] Could you please sort these 4 entries by pKi from high to low? Respond with the label ranking, as requested.
[reply] 1, 2, 3, 4
